B1: Calcium-binding protein 2, residues 155 to 219; numbered along this chain, Q9NPB3 (parent)
chain: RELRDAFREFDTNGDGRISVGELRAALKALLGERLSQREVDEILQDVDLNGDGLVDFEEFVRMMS

variants of: B1; assay: abundance fitness (aPCA) (normalised: wild type 0, dead -1); higher = more abundant; growth selection in yeast, the domain comes from the species named; conditions: Homo sapiens
Label scheme for abundance fitness: low group: < -0.2; middle group: ≥ -0.2 and < 0.006; high group: ≥ 0.006

Illustrative cases are given below, each with its answer.
RELRDAFREFDTNGDGRISVGELRAALKALLGERLSQREVAEILQDVDLNGDGLVDFEEFVRMMS [D41A] : middle group
RELRDAFREFDTNGDRRISVGELRAALKALLGERLSQREVDEILQDVDLNGDGLVDFEEFVRMMS [G16R] : low group
RELRTAFREFDTNGDGRISVGELRAALKALLGERLSQREVDEILQDVDLNGDGLVDFEEFVRMMS [D5T] : high group

Dear colleague, I would appreciate it if you could identify the bin for RELRDAFREFDTNGDGRISVGELRAALKALLGERSSQREVDEILQDVDLNGDGLVDFEEFVRMMS [L35S] and reply at your convenience.
middle group

Dear colleague, I would appreciate it if you could identify the bin for RELRDAFREFDTNGDGRISVGELRAALKALLGERLSQREVDEILQDVDLKGDGLVDFEEFVRMMS [N50K] and reply at your convenience.
high group

Dear colleague, I would appreciate it if you could identify the bin for RELRDAFREFDTNGDGRISVGELRAALKALLGERLSQREVDEIPQDVDLNGDGLVDFEEFVRMMS [L44P] and reply at your convenience.
low group

Dear colleague, I would appreciate it if you could identify the bin for RELRDAFREFDTNGDGRISVGELRAALKALLGERLSQREVDEILQDVDLNGDGLVDFVEFVRMMS [E58V] and reply at your convenience.
middle group
